Assay procedure: Cytotoxicity test of compound in MT-2 cells (XTT)
Assay type: cell-based
Measurement parameters: human, MT-2 cells; MT-2 cell line, uninfected cells
Parameter: CC50 at 4 days (µg/mL)
Answers are plain numbers, in µg/mL.

# Cpd smiles, CC50 at 4 days, µg/mL
data = [
    ("Cc1cc(Br)cc(C)c1Oc1cc(Nc2ccc(C#N)cc2)c(N)cc1N", 17.2),
]

Dear reader, for each entry below, please note its CC50 at 4 days.
1. Cc1cc(C#N)cc(C)c1Oc1cc(Nc2ccc(C#N)cc2)c(N)cc1[N+](=O)[O-]
2. Cc1cc(Br)cc(C)c1Oc1ccc(N)c(Nc2ccc(C#N)cc2)c1
3. Cc1cc(Br)cc(C)c1Oc1cc(Nc2ccc(C#N)cc2)c(N)cc1[N+](=O)[O-]
4. Cc1cc(C#N)cc(C)c1Oc1cc(Nc2ccc(C#N)cc2)c(N)cc1N
5. Cc1cc(C#N)cc(C)c1Oc1ccc([N+](=O)[O-])c(Nc2ccc(C#N)cc2)c1

Key:
1. 61.3
2. 14.5
3. 61.1
4. 19.4
5. 56.5

---

Assay procedure: Cytotoxicity test of compound in H9 cells
Type: cell-based
Measurement parameters: human, H9 lymphocyte cells; H9 cell line, uninfected cells
Parameter: CC50 at 4 days (µg/mL)
One number for each entry, in µg/mL.

Examples with answers:
# Cpd smiles, CC50 at 4 days, µg/mL
rows = [
    ("Cc1cc(C#N)cc(C)c1Oc1cc(Nc2ccc(C#N)cc2)c(N)cc1N", 20.5),
    ("Cc1cc(Br)cc(C)c1Oc1ccc(N)c(Nc2ccc(C#N)cc2)c1", 17.2),
]

Now consider the entry below.
Exercise: # lookup: CC50 at 4 days of `Cc1cc(Br)cc(C)c1Oc1cc(Nc2ccc(C#N)cc2)c(N)cc1N`
Key: 16.2

---

Test system: HIV-1IIIB virus strains
Assay procedure: Assay of anti-HIV activity (MT-2 cell model), p24 antigen ELISA
Type: cell-based
Measurement parameters: Human immunodeficiency virus 1, MT2; MT-2 cell line infected with HIV-1IIIB; 50% virus inhibition; read-out: EC50
Record form. Attribute: log10 EC50. Fill in for each entry.
Please keep in mind that the values are log10 of EC50 expressed in µg/mL.

Dear reader, for each entry below, please note its log10 EC50.
1. Cc1cc(C#N)cc(C)c1Oc1ccc([N+](=O)[O-])c(Nc2ccc(C#N)cc2)c1
2. Cc1cc(C#N)cc(C)c1Oc1cc(Nc2ccc(C#N)cc2)c(N)cc1[N+](=O)[O-]
3. Cc1cc(Br)cc(C)c1Oc1cc(Nc2ccc(C#N)cc2)c([N+](=O)[O-])cc1[N+](=O)[O-]
4. Cc1cc(Br)cc(C)c1Oc1cc(Nc2ccc(C#N)cc2)c(N)cc1N
5. Cc1cc(Br)cc(C)c1Oc1ccc(N)c(Nc2ccc(C#N)cc2)c1
6. Cc1cc(C)c(Oc2cc(Nc3ccc(C#N)cc3)c([N+](=O)[O-])cc2[N+](=O)[O-])c(C)c1

Key:
[0.82, -1.89, -0.85, -0.89, -0.80, -0.15]

Exercise: # lookup: log10 EC50 of `Cc1cccc(C)c1Oc1cc(Nc2ccc(C#N)cc2)c([N+](=O)[O-])cc1[N+](=O)[O-]`
Key: 0.57

---

Test system: HIV-1IIIB virus strains
Assay procedure: Assay of anti-HIV activity (MT-2 cell model), p24 antigen ELISA
Format: cell-based
Measurement parameters: Human immunodeficiency virus 1, MT2; MT-2 cell line infected with HIV-1IIIB; 50% virus inhibition; read-out: EC50
Parameter: EC50 (µg/mL)
Answers are plain numbers, in µg/mL.

Examples with answers:
# Compound, Parameter, Unit name, Recorded result
measured = [
    ("Cc1cc(C)c(Nc2cc(Nc3ccc(C#N)cc3)c([N+](=O)[O-])cc2[N+](=O)[O-])c(C)c1 [Compound I-3]", "EC50", "µg/mL", 0.18),
    ("Cc1cc(C#N)cc(C)c1Oc1cc(Nc2ccc(C#N)cc2)c(N)cc1N [Compound I-10]", "EC50", "µg/mL", 0.008),
]

Now consider the entry below.
Exercise: # lookup: EC50 of Cc1cccc(C)c1Oc1ccc([N+](=O)[O-])c(Nc2ccc(C#N)cc2)c1 [Compound I-7]
Key: 1.18

---

System: HIV virus (IIIB)
Assay procedure: Assay of anti-HIV activity (H9 cell model), P24 antigen ELISA
Format: cell-based
Measurement parameters: H9 cell line; ratio of cytotoxicity CC50 to activity EC50
Parameter: SI (CC50/EC50)

Examples with answers:
# Cpd smiles, Recorded result
rows = [
    ("Cc1cccc(C)c1Oc1ccc([N+](=O)[O-])c(Nc2ccc(C#N)cc2)c1", ">33"),
    ("CC(=O)ON(c1cc(Nc2ccc(C#N)cc2)c([N+](=O)[O-])cc1[N+](=O)[O-])c1c(C)cc(C)cc1C", ">14.15"),
    ("Cc1cc(Br)cc(C)c1Oc1cc(Nc2ccc(C#N)cc2)c(N)cc1[N+](=O)[O-]", ">1000"),
    ("Cc1cc(C#N)cc(C)c1Oc1cc(Nc2ccc(C#N)cc2)c(N)cc1N", ">820"),
    ("Cc1cc(Br)cc(C)c1Oc1ccc(N)c(Nc2ccc(C#N)cc2)c1", 128),
]

Dear reader, for each entry below, please note its SI (CC50/EC50).
1. Cc1cc(C)c(Nc2cc(Nc3ccc(C#N)cc3)c([N+](=O)[O-])cc2[N+](=O)[O-])c(C)c1
2. Cc1cc(C#N)cc(C)c1Oc1cc(Nc2ccc(C#N)cc2)c(N)cc1[N+](=O)[O-]
3. Cc1cc(C)c(Oc2cc(Nc3ccc(C#N)cc3)c([N+](=O)[O-])cc2[N+](=O)[O-])c(C)c1
4. Cc1cc(Br)cc(C)c1Oc1cc(Nc2ccc(C#N)cc2)c(N)cc1N
5. Cc1cccc(C)c1Oc1cc(Nc2ccc(C#N)cc2)c([N+](=O)[O-])cc1[N+](=O)[O-]
6. Cc1cc(Br)cc(C)c1Oc1cc(Nc2ccc(C#N)cc2)c([N+](=O)[O-])cc1[N+](=O)[O-]

Key:
>455
>1000
>174
239
>113
>234

Exercise: # lookup: SI (CC50/EC50) of `Cc1cc(C#N)cc(C)c1Oc1ccc([N+](=O)[O-])c(Nc2ccc(C#N)cc2)c1`
Key: >312
